Source of measurements: patent US9249125B2

Tested on: RSV A2
Assay: RSV induced F-protein expression in primary bronchial epithelial cells
Format: cell-based, respiratory syncytical virus
Details: human respiratory syncytial virus, Primary bronchial epithelial cell, read-out: RSV induced F-protein in HBECs IC50
Measurement Type: IC50
Include the unit right after the number.

• Cc1ccc(-n2nc(C(C)(C)C)cc2NC(=O)Nc2ccc(Oc3ccnc(Nc4ccc5[nH]ncc5c4)n3)c3ccccc23)cc1 [Example 22] = 4.6 nM

Proceed to the following item.
Query: Param item = COc1ccc(-n2nc(C(C)(C)C)cc2NC(=O)Nc2ccc(Oc3ccnc(Nc4ccc5[nH]ncc5c4)n3)c3ccccc23)cc1 [Example 40] ; retrieve measured IC50.
Response: 4.8 nM
